# Assay Info: yeast display, Sf9 membrane polyspecificity reagent, FACS + sequencing; frameworks hold sequencing errors

Query Sequence	polyreactivity (PSR sort gate)
QVQLVESGGGLVHAGGSLRLSCAASGSIFQYNAMGWYRQAPGKERELVATISSGGSTNYADSVKGRFTISRDNAKNTVYLQMNSLKPEDTAVYYCAAVVIVFYYAPNYWGDIEYGYWGQGTQVTVSS	low polyreactivity
QVQLVESGGGLVQAGGSLRLSCAASGSTFYGNAMGWYRQAPGKERELVATISWSGGSTYYADSVKGRFTISRDNAKNTVYLQMNSLKPEDTAVYYCNAEITTKSLVTRYSWYGGDYWGQGTQVTVSS	low polyreactivity
